Reference source for all entries: paper PMC12121777

Tested on: Mtb 331/88 (i.e., H37Rv)
Protocol: MIC, micro method in Šula's semisynthetic medium, drug-susceptible Mtb
Format: cell-based, Mycobacterium tuberculosis
Condition Info: Mycobacterium tuberculosis, H37RV, 504 h; 21 days
compounds and their reported MIC

>>> val("CCCCCCCCCCCCCCCCCCNc1nnc(-c2cc([N+](=O)[O-])cc([N+](=O)[O-])c2)o1")
"> 32 µM"
>>> val("O=[N+]([O-])c1cc(-c2nnc(NCc3ccc(Br)cc3)o2)cc([N+](=O)[O-])c1")
"0.25 µM"
>>> val("CCCNC(=O)NNC(=O)c1cc([N+](=O)[O-])cc([N+](=O)[O-])c1")
"16 µM"
>>> val("CCCCCCCCCCCCNc1nnc(-c2cc([N+](=O)[O-])cc([N+](=O)[O-])c2)s1")
"1 µM"
>>> val("CCCCCCNc1nnc(-c2cc([N+](=O)[O-])cc([N+](=O)[O-])c2)o1")
"≤ 0.03 µM"
>>> val("CNc1nnc(-c2cc([N+](=O)[O-])cc([N+](=O)[O-])c2)o1")
"16 µM"
>>> val("CCCCCCCCCCCCCNc1nnc(-c2cc([N+](=O)[O-])cc([N+](=O)[O-])c2)o1")
"0.5 µM"
>>> val("O=[N+]([O-])c1cc(-c2nnc(NCc3ccc(Cl)cc3)s2)cc([N+](=O)[O-])c1")
"≤ 0.03 µM"

Query block: Identify MIC associated with the compound O=[N+]([O-])c1cc(-c2nnc(NCc3ccc(Cl)cc3Cl)o2)cc([N+](=O)[O-])c1
Result block: 0.125 µM

Query block: Identify MIC associated with the compound CCCCCNC(=O)NNC(=O)c1cc([N+](=O)[O-])cc([N+](=O)[O-])c1
Result block: 1 µM

Query block: Identify MIC associated with the compound CCCNc1nnc(-c2cc([N+](=O)[O-])cc([N+](=O)[O-])c2)o1
Result block: 4 µM

Query block: Identify MIC associated with the compound CCCCCCCCCCCNC(=O)NNC(=O)c1cc([N+](=O)[O-])cc([N+](=O)[O-])c1
Result block: 1 µM

Query block: Identify MIC associated with the compound CCCCCCCCNC(=O)NNC(=O)c1cc([N+](=O)[O-])cc([N+](=O)[O-])c1
Result block: 0.5 µM

Query block: Identify MIC associated with the compound CCNc1nnc(-c2cc([N+](=O)[O-])cc([N+](=O)[O-])c2)o1
Result block: 16 µM

Query block: Identify MIC associated with the compound CCCCCCCNC(=O)NNC(=O)c1cc([N+](=O)[O-])cc([N+](=O)[O-])c1
Result block: 0.5 µM

Query block: Identify MIC associated with the compound CCCCCNc1nnc(-c2cc([N+](=O)[O-])cc([N+](=O)[O-])c2)o1
Result block: 0.25 µM

Query block: Identify MIC associated with the compound CCCCCCCCCCNc1nnc(-c2cc([N+](=O)[O-])cc([N+](=O)[O-])c2)o1
Result block: 1 µM

---

System: Mtb 331/88 (i.e., H37Rv)
Protocol: MIC, micro method in Šula's semisynthetic medium, drug-susceptible Mtb
Assay type: cell-based, Mycobacterium tuberculosis
Condition Info: Mycobacterium tuberculosis, H37RV, 504 h; 21 days
Measurement Kind: MIC (µM)
Enter your answer as a number in µM; do not include the unit.

>>> val("O=[N+]([O-])c1cc(-c2nnc(NCc3ccc(Cl)cc3Cl)s2)cc([N+](=O)[O-])c1")
0.125
>>> val("CCCCCCCCCCCCNC(=O)NNC(=O)c1cc([N+](=O)[O-])cc([N+](=O)[O-])c1")
2
>>> val("CCCCCCCCCCCCNC(=S)NNC(=O)c1cc([N+](=O)[O-])cc([N+](=O)[O-])c1")
2
>>> val("CCCCCCCCCCCCCCCNC(=O)NNC(=O)c1cc([N+](=O)[O-])cc([N+](=O)[O-])c1")
16
>>> val("CCCCCCCCCCCCCCCCCCNC(=O)NNC(=O)c1cc([N+](=O)[O-])cc([N+](=O)[O-])c1")
16
>>> val("CCCCCCCCCCCCCCCNc1nnc(-c2cc([N+](=O)[O-])cc([N+](=O)[O-])c2)o1")
2

Let us examine a further case.
Query block: Identify MIC associated with the molecule NNC(=O)c1ccncc1 [INH, isoniazid, reference compound]
Result block: 0.5
